Numbers sourced from patent EP0467660A2.

target: testosterone 5α-reductase; test: Testosterone 5α-reductase enzymatic activity inhibitory ratio (crude rat prostate enzyme, [4-14C]-testosterone to DHT conversion, TLC); settings: 37°C, two hours; Fig. 1; 120 min; read-out: amount exhibiting a inhibitory ratio of 50%

[
  {
    "molecule": "CC1(C)[C@@H](O)CC[C@]2(C)[C@H]3C(=O)C=C4[C@@H]5C[C@@](C)(C(=O)O)CC[C@]5(C)CC[C@@]4(C)[C@]3(C)CC[C@@H]12 [sodium β-glycyrrhetinic acid]",
    "IC50 / µM": 500
  }
]
